biological target: mineralcorticoid receptor (Homo sapiens, UniProt P08235); assay: MR antagonism luciferase reporter cell line assay; type: cell-based
Sequence (P08235 whole entry): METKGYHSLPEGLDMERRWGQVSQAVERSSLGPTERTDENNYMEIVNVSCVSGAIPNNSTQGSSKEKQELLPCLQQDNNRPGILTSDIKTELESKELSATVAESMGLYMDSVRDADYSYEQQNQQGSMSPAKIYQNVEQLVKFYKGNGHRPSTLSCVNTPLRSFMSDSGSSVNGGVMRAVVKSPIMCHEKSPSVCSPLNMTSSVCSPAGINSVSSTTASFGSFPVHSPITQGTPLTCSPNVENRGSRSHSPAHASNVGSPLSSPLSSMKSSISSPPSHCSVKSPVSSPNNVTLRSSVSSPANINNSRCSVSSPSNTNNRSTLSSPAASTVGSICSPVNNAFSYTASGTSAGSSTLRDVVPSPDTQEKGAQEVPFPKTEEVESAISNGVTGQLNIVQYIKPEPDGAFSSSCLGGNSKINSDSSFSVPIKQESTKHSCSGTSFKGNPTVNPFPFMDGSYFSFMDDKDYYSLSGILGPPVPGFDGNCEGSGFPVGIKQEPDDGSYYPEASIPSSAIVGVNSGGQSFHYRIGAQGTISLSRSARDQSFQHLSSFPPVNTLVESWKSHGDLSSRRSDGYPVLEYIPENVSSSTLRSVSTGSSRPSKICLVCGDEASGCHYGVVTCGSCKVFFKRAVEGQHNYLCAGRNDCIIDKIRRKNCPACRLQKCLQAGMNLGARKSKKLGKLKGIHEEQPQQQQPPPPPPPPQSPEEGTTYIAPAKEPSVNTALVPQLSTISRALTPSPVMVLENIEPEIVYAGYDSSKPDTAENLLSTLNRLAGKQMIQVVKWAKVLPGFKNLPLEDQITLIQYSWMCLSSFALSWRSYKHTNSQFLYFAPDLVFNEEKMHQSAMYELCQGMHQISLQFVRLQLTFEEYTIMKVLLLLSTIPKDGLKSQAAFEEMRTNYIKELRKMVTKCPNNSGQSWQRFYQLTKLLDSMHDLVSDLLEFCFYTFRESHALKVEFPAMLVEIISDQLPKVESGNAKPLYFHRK
Each entry below carries its reported IC50.
recordedEndpoint: IC50 (µM)

{"entrySmiles": "C[C@]12CC[C@H]3[C@@H](CC4(CC4)C4=CC(=O)CC[C@@]43C)[C@@H]1CC[C@@H]2C#N", "valueUnit": "µM", "recordedResult": 0.02}
{"entrySmiles": "C[C@]12CC[C@H]3[C@@H]([C@H]4C[C@H]4C4=CC(=O)CC[C@@]43C)[C@@H]1[C@@H]1C[C@@H]1[C@@H]2C#N", "valueUnit": "µM", "recordedResult": 0.0047}
